# ASSAY NOTES: Intrinsic clearance in human liver microsomes
# Format: ADME, Microsome
Catalogue of CLH values
MEASURED ATTRIBUTE: CLH

CHEMICAL STRUCTURE | MEASURED ATTRIBUTE | OBS VALUE
COCCN1CCN(c2ccc(OCc3ccccc3)c(C(=O)Nc3ccnnc3)c2)CC1 | CLH | 1.3 mL/min/g
COCCN1CCC(c2ccc(OCc3ccccc3)c(C(=O)Nc3ccnnc3)c2)CC1 | CLH | < 0.78 mL/min/g
O=C(Nc1ccnnc1)c1cc(N2CCC(CO)CC2)ccc1OCc1ccccc1 | CLH | 1 mL/min/g
O=C(Nc1ccnnc1)c1cc(N2CCC(O)CC2)ccc1OCc1ccccc1 | CLH | 0.6 mL/min/g
O=C(Nc1ccnnc1)c1cc(N2CC(F)(F)C2)ccc1OCc1ccccc1 | CLH | 9.5 mL/min/g
N#CC1CCN(c2ccc(OCc3ccccc3)c(C(=O)Nc3ccnnc3)c2)CC1 | CLH | 5.5 mL/min/g
O=C(Nc1ccnnc1)c1cc(N2CC(F)C2)ccc1OCc1ccccc1 | CLH | 11.8 mL/min/g
CN1CCN(c2ccc(OCc3ccccc3)c(C(=O)Nc3ccnnc3)c2)CC1 | CLH | 1.6 mL/min/g
O=C(Nc1ccnnc1)c1cc(N2CCC(F)CC2)ccc1OCc1ccccc1 | CLH | 5.5 mL/min/g
C[C@@H]1CN(c2ccc(OCc3ccccc3)c(C(=O)Nc3ccnnc3)c2)C[C@H](C)O1 | CLH | 2.2 mL/min/g
O=C(Nc1ccnnc1)c1cc(N2CCNCC2)ccc1OCc1ccccc1 | CLH | 0.4 mL/min/g
O=C(Nc1ccnnc1)c1cc(N2C[C@H]3COC[C@H]3C2)ccc1OCc1ccccc1 | CLH | 4.3 mL/min/g
O=C(Nc1ccnnc1)c1cc(N2CCOCC2)ccc1OCc1ccccc1 | CLH | 2.1 mL/min/g
O=C(Nc1ccnnc1)c1cc(N2CCCC2)ccc1OCc1ccccc1 | CLH | 9.8 mL/min/g

----------
// reported chromatographic logD for each item listed
# ASSAY NOTES: Lipophilicity, log D of the compound at pH 7.4 by chromatographic method
# Assay type: physicochemical
# EXPERIMENTAL CONTEXT: buffer

CHEMICAL STRUCTURE | chromatographic logD
C[C@@H]1CN(c2ccc(OCc3ccccc3)c(C(=O)Nc3ccnnc3)c2)C[C@H](C)O1 | 5.4
O=C(Nc1ccnnc1)c1cc(N2CC(F)(F)C2)ccc1OCc1ccccc1 | 5.1
O=C(Nc1ccnnc1)c1cc(N2CCC(O)CC2)ccc1OCc1ccccc1 | 3.2
O=C(Nc1ccnnc1)c1cc(N2CC(F)C2)ccc1OCc1ccccc1 | 4.4
O=C(Nc1ccnnc1)c1cc(C(F)(F)F)ccc1OCc1ccccc1 | 5.4
O=C(Nc1ccnnc1)c1cc(N2CCC(F)CC2)ccc1OCc1ccccc1 | 5.1
O=C(Nc1cccc(F)c1)c1cc(C(F)(F)F)ccc1OCc1ccc(F)cc1 | 8.2
O=C(Nc1cccc(Cl)c1)c1cc(C(F)(F)F)ccc1OCc1ccccc1 | 8.8
CN1CC2(C1)CN(c1ccc(OCc3ccccc3)c(C(=O)Nc3ccnnc3)c1)C2 | 2
O=C(Nc1ccnnc1)c1cc(N2CCNCC2)ccc1OCc1ccccc1 | 1.9
O=C(Nc1ccnnc1)c1cc(N2CCC(CO)CC2)ccc1OCc1ccccc1 | 3.5
O=C(Nc1ccnnc1)c1cc(N2CCOCC2)ccc1OCc1ccccc1 | 4.1
COCCN1CCN(c2ccc(OCc3ccccc3)c(C(=O)Nc3ccnnc3)c2)CC1 | 3.8
C[C@@H]1COCCN1c1ccc(OCc2ccccc2)c(C(=O)Nc2ccnnc2)c1 | 4.5
CN1CCC(c2ccc(OCc3ccccc3)c(C(=O)Nc3ccnnc3)c2)CC1 | 2.3
COCCN1CCC(c2ccc(OCc3ccccc3)c(C(=O)Nc3ccnnc3)c2)CC1 | 2.9
N#Cc1cccc(NC(=O)c2cc(C(F)(F)F)ccc2OCc2ccc(F)cc2)c1 | 7.5
CN1CC2(CCN(c3ccc(OCc4ccccc4)c(C(=O)Nc4ccnnc4)c3)CC2)C1 | 2.2
CN1CCN(c2ccc(OCc3ccccc3)c(C(=O)Nc3ccnnc3)c2)CC1 | 3
O=C(Nc1cccnc1)c1cc(C(F)(F)F)ccc1OCc1ccc(F)cc1 | 6.3
N#CC1CCN(c2ccc(OCc3ccccc3)c(C(=O)Nc3ccnnc3)c2)CC1 | 4.5
O=C(Nc1cccc(Cl)c1)c1cc(C(F)(F)F)ccc1OCc1ccc(F)cc1 | 8.7
O=C(Nc1ccnnc1)c1cc(N2CCCCC2)ccc1OCc1ccccc1 | 6.3
O=C(Nc1ccnnc1)c1cc(N2CCCC2)ccc1OCc1ccccc1 | 6.1
O=C(Nc1cccnc1)c1cc(C(F)(F)F)ccc1OCc1ccccc1 | 6.3
O=C(Nc1ccnnc1)c1cc(N2C[C@H]3COC[C@H]3C2)ccc1OCc1ccccc1 | 4.5

----------
# ASSAY NOTES: Unbound brain-to-plasma concentration ratio in naive rat at 5 mg/kg, iv administered as bolus dose followed by 5 ml/kg/hr iv infusion for 4 hrs
# Type: ADME, organism-based
# EXPERIMENTAL CONTEXT: read-out: K(p,uu,brain)

CHEMICAL STRUCTURE | Kp uu at 4 h
O=C(Nc1ccnnc1)c1cc(N2CCOCC2)ccc1OCc1ccccc1 | 0.51

----------
# ASSAY NOTES: Drug level in naive rat brain at 5 mg/kg, iv administered as bolus dose followed by 5 ml/kg/hr iv infusion for 4 hrs
# Format: ADME, organism-based
# EXPERIMENTAL CONTEXT: read-out: Drug uptake
MEASURED ATTRIBUTE: concentration at 4 h

CHEMICAL STRUCTURE | MEASURED ATTRIBUTE | OBS VALUE
O=C(Nc1ccnnc1)c1cc(N2CCOCC2)ccc1OCc1ccccc1 | concentration at 4 h | 1630 ng/g
